Exercise: state measured viscosity for each of the molecules provided.
Details: 343.15 K; 101.33 kPa; Liquid; Concentric cylinders viscometry
One number for each entry, in mPa·s.

Example results:
CCCCn1cc[n+](C)c1.COS(=O)(=O)[O-] [1-butyl-3-methylimidazolium methyl sulfate] : 31.1
CCn1cc[n+](C)c1.O=S(=O)([O-])C(F)(F)F [1-ethyl-3-methylimidazolium trifluoromethanesulfonate] : 12.3
CCCCn1cc[n+](C)c1.O=S(=O)([O-])C(F)(F)F [1-butyl-3-methylimidazolium trifluoromethanesulfonate] : 17.2

--- query ---
Note to self: viscosity recorded for CCn1cc[n+](C)c1.COS(=O)(=O)[O-] [1-ethyl-3-methylimidazolium methylsulfate] was 16.1
